// data source = ChEMBL document CHEMBL1201862

Reported AC50 is given for each of the following molecules.
Molecular target: Long-chain-fatty-acid--AMP ligase FadD28 (Mycobacterium tuberculosis, UniProt P9WQ59)
Sequence (P9WQ59 whole entry): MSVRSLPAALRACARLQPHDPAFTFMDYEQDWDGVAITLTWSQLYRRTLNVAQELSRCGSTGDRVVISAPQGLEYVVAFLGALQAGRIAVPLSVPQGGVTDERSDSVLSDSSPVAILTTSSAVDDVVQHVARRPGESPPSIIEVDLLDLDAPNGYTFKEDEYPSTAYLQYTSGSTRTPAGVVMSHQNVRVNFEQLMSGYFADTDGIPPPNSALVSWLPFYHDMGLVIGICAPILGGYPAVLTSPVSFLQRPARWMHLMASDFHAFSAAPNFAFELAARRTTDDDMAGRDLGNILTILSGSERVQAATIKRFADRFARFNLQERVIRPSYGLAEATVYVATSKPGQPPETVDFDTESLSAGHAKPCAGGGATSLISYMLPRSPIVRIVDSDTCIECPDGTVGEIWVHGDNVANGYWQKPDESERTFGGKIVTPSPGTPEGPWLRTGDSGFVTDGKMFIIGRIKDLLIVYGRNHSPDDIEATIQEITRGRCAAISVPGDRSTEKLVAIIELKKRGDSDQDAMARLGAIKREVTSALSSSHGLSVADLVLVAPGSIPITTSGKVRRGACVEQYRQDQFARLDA
Assay: Fluorescence polarization aasay to screen for inhibitors that compete for the binding of FadD28 to a bisubstrate Measured in Biochemical System Using Plate Reader - 2147-01_Inhibitor_Dose_CherryPick_Activity.
Assay type: functional, Mycobacterium tuberculosis H37Rv
Active and inactive are the calls of the source.

Use the examples below as a reference point.
molecule="CCC1=NN(C(=O)c2ccccc2Br)C(O)(c2ccc(Br)cc2)C1 (centres undefined)" value_reported="> 100 µM (inactive)"
molecule=O=C(NN1C(=O)/C(=C/c2ccc(O)cc2)SC1=S)c1cccc(O)c1 value_reported="62 µM (active)"
molecule=Cc1csc(NC(=O)CSc2nnc(NC(=O)NC(C)(C)C)s2)n1 value_reported="> 100 µM (inactive)"

Request: // returns reported AC50 for input O=C(O)c1cc(N/N=C/C(Cl)=C/c2ccccc2)ccc1Cl
Response: 13.6 µM (active)

###

Target: UniProt:P31424
Sequence (P31424 whole entry): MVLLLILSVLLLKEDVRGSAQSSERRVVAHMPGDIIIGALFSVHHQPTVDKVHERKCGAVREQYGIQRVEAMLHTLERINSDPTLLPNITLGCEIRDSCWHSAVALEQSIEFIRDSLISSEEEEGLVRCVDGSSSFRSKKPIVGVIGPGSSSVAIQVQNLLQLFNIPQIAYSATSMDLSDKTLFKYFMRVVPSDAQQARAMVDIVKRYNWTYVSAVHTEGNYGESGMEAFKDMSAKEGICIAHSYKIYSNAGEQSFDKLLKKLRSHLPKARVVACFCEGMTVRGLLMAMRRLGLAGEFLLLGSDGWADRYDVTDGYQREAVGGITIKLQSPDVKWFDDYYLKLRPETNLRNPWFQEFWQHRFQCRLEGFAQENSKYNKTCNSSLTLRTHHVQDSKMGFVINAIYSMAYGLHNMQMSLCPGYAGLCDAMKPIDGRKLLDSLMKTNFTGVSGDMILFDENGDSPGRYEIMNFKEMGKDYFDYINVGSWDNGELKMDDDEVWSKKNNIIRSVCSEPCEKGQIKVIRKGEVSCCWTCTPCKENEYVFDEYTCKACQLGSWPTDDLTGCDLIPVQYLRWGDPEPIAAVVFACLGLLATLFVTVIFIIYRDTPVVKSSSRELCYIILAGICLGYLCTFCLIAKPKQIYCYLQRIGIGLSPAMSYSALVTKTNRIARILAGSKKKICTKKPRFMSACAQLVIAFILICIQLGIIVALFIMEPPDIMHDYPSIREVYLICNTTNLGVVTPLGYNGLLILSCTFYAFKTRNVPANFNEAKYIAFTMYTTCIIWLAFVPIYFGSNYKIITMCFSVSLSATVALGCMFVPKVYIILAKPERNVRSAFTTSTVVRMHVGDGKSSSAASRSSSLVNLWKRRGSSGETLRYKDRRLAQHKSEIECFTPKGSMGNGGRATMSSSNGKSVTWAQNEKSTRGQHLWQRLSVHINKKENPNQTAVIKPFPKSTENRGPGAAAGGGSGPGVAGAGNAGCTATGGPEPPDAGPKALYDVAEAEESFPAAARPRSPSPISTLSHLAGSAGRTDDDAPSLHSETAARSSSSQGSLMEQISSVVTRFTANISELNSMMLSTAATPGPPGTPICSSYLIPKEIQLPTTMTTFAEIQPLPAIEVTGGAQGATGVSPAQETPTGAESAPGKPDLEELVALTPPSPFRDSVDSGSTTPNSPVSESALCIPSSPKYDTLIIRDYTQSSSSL
Test: Identification of a glycine sulfonamide based non-MPEP site positive allosteric potentiator (PAM) of mGlu5 (calcium_assay).
quantity_name: EC50 (nM)
Could you give me the number in nM? Just the number is fine.

Request: Enter reported EC50 observed with UniProt:P31424 for O=S(=O)(c1ccc(C#Cc2cccc(F)c2)cc1)N1CCOCC1
Response: 427

###

Assay: Trypanosoma cruzi growth suppression in host cells – NIH3T3 host cells, beta-gal luminescence, confirmation (AID 2044);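 also: intracellular parasites grown in NIH/3T3 mouse fibroblasts as host cells; luminescent beta-galactosidase reporter signal from transgenic T. cruzi replicating inside host cells; inhibitors lower the luminescence signal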
Type: functional, cell-based
Active and inactive are the calls of the source.
Reported EC50 is given for each of the following compounds.

Use the examples below as a reference point.
compound=Cc1cccc(-n2nc([N+](=O)[O-])c(NCc3cccnc3)[n+]2[O-])c1 value_reported="0.582 µM (active)"
compound=CN(Cc1ccc(Cl)cc1Cl)C(=O)c1cccc(S(=O)(=O)N2CCN(c3ccccc3)CC2)c1 value_reported="1.64 µM (active)"
compound=COc1ccccc1N1CCN(C/C=C/c2ccc(N(C)C)cc2)CC1 value_reported="1.46 µM (active)"
compound="O=C(COc1cccnc1[N+](=O)[O-])N1N=C(c2ccc(Cl)cc2)CC1c1ccco1 (stereo not given)" value_reported="2.8 µM (active)"

Attention now shifts to the item below.
Request: // returns reported EC50 for input Cc1cc(Br)ccc1NC(=O)CN1C(=O)C2C3CC(c4ccccc4)C(C3)C2C1=O (stereo not given)
Response: 2.6 µM (active)

###

Biological target: Activin receptor type-1 (Homo sapiens, UniProt Q04771)
Sequence (Q04771 whole entry): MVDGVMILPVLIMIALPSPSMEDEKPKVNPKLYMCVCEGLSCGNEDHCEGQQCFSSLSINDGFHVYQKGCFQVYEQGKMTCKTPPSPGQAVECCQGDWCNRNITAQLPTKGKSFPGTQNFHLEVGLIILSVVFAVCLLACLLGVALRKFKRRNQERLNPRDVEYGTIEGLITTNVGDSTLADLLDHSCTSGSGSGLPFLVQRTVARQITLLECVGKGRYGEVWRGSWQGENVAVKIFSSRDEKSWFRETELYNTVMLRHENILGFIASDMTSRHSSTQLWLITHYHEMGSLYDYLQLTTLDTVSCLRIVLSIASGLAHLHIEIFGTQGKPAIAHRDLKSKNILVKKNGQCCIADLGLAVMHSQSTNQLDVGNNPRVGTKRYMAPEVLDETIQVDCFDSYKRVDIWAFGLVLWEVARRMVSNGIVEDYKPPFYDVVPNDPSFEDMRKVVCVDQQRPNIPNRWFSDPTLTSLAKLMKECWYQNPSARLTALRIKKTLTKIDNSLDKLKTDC
Experiment: Navigating the Kinome. Panel member name: ACVR1
Assay type: functional
The source made the active and inactive calls.
quantity_name: Ki

molecule=CCCCC(=O)Nc1cc(-c2c[nH]c3ncccc23)cc(Cl)n1 value_reported="> 3.98 µM (inactive)"
molecule="O=C(Nc1cccc(Cl)c1)Nc1ncc(CCNc2ncnc3ccsc23)s1 [SNS-314]" value_reported="> 3.98 µM (inactive)"
molecule="Oc1ccc(-c2nc(-c3ccncc3)c(-c3ccc(F)cc3)[nH]2)cc1 [SB-202190]" value_reported="> 3.16 µM (inactive)"

Attention now shifts to the item below.
Request: // returns reported Ki for input COc1cccc(C(C)NC(=O)c2sc(-c3ccncc3)nc2C)c1 (centres undefined)
Response: > 3.98 µM (inactive)

###

Molecular target: Zinc finger protein mex-5 (Caenorhabditis elegans, UniProt Q9XUB2)
Sequence (Q9XUB2 whole entry): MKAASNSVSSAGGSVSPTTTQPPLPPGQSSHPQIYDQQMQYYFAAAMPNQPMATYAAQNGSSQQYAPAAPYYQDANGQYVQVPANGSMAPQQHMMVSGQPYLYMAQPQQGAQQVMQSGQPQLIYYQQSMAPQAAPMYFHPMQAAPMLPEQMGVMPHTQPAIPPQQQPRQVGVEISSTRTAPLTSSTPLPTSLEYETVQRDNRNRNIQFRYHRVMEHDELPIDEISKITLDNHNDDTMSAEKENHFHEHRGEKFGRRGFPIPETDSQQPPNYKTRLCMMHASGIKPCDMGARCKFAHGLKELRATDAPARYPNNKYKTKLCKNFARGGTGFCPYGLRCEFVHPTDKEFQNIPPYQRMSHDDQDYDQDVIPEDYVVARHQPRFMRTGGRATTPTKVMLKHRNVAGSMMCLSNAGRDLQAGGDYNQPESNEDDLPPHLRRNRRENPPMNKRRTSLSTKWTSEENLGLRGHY
Test: potency of MEX-5 RNA-binding blockers – biochemical, C. elegans, fluorescence polarization, dose response (AID 1960)
Active and inactive are the calls of the source.
quantity_name: EC50

compound=Cc1ccc(N2C(=O)NC(=O)/C(=C\c3cc(C)n(-c4cc(C(=O)O)cc(C(=O)O)c4)c3C)C2=O)cc1 experimental_target="Zinc finger protein mex-5 (Caenorhabditis elegans, UniProt Q9XUB2)" value_reported="> 300 µM (not active)"
compound="CC(C)(C)OC(=O)NCCCC1=CC2=CC(=O)C(C)(OC(=O)c3ccco3)C(=O)C2=CO1 (stereo unspecified)" experimental_target="Zinc finger protein mex-5 (Caenorhabditis elegans, UniProt Q9XUB2)" value_reported="46.8 µM (active)"
compound="O=C(N[C@H]1CP(=O)(Oc2ccccc2)O[C@H](COCc2ccccc2)[C@H]1O)C(Cl)(Cl)Cl (stereo partly specified)" experimental_target="Zinc finger protein mex-5 (Caenorhabditis elegans, UniProt Q9XUB2)" value_reported="> 300 µM (not active)"
compound=COc1cc(/C=C2\C(=O)NN(c3ccccc3)C2=O)cc([N+](=O)[O-])c1O experimental_target="Zinc finger protein mex-5 (Caenorhabditis elegans, UniProt Q9XUB2)" value_reported="37.5 µM (active)"
compound=CC(=O)C1=C(c2cccc([N+](=O)[O-])c2)N(C(C)=O)n2c(C)nnc2S1 experimental_target="Zinc finger protein mex-5 (Caenorhabditis elegans, UniProt Q9XUB2)" value_reported="> 300 µM (inconclusive)"

Request: // returns reported EC50 for input COC(=O)c1ccc(C23CC4(C2)[C@H](CN(Cc2ccc(C(F)(F)F)cc2)[C@@H]4c2ccccc2)C3c2ccccc2)cc1 (stereo partly specified)
Response: > 300 µM (not active)

###

Biological target: Corticotropin-releasing factor receptor 2/Corticotropin-releasing factor-binding protein (Homo sapiens, UniProt P24387+Q13324)
Sequence (Q13324 whole entry): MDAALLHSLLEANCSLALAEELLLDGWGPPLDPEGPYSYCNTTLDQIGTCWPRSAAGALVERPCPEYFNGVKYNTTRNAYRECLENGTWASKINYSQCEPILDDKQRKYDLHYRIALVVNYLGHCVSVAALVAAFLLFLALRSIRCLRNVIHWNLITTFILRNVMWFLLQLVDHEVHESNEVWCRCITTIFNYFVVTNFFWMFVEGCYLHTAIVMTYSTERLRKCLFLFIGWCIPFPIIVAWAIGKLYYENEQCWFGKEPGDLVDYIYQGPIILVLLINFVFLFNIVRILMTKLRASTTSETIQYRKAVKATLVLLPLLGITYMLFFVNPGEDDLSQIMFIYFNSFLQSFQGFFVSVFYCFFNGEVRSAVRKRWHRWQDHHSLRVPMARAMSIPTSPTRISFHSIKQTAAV
Sequence (P24387 whole entry): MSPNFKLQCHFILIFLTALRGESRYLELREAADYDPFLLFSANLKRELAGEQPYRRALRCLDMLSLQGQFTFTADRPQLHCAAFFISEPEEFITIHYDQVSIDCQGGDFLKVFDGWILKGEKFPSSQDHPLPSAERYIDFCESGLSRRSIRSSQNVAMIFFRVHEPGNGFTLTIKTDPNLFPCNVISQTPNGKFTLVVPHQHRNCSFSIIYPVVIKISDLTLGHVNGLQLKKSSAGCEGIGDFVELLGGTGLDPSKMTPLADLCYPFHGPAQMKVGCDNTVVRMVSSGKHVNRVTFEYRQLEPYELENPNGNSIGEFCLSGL
Assay: Dose Response confirmation of uHTS hits for small molecule antagonists of the CRF-binding protein and CRF-R2 receptor complex.
Assay type: functional
Details: read-out: IC50_Mean
Calls of active or inactive are those of the source.
Please answer using one outcome listed in y (active), n (inactive)

Examples from the recorded data:
molecule="COc1cc(CCc2ccccc2)c(C(=O)O)c(O)c1CC=C(C)C [AMORFRUTIN A]" classification=y
molecule=COc1ccc(-c2c(C)nn3c(N4CCCCCC4)cc(C)nc23)cc1OC classification=y
molecule=COc1ccc(CNC(=O)c2sc(=S)n(-c3ccc(OC)cc3)c2N)cc1 classification=n
molecule="Cc1ccc(-n2nc3c(c2NC(=O)c2ccc(OC(C)C)cc2)C[S+]([O-])C3)cc1 (stereo not given)" classification=n
molecule="Cc1cccc(-c2noc(C(C)NC(=O)c3ccco3)n2)c1 (stereo not given)" classification=n
molecule=Cc1cccn2c(/C=N/OCc3cccc(F)c3)c(-c3ccc(Cl)cc3)nc12 classification=n

Request: I'd appreciate the recorded outcome for COC(=O)C1=C(C)N(c2ccc(OC)cc2)C(C)=C(C(=O)OC)C1c1ccccc1 from this test.
Response: n

Request: Entry CC(C)N(C(=O)C[n+]1ccsc1N)c1ccccc1 please
Response: n

Request: Entry Cc1noc(C(F)(F)F)c1C(=O)NNC(=O)c1cccc(C(F)(F)F)c1 please
Response: n

Request: Entry COc1ccccc1C(=O)NCCC(=O)N1CCN(c2ccccc2O)CC1 please
Response: n

###

Molecular target: Carboxy-terminal domain RNA polymerase II polypeptide A small phosphatase 1 (Homo sapiens, UniProt Q9GZU7)
Sequence (Q9GZU7 whole entry, the tested form may be a part): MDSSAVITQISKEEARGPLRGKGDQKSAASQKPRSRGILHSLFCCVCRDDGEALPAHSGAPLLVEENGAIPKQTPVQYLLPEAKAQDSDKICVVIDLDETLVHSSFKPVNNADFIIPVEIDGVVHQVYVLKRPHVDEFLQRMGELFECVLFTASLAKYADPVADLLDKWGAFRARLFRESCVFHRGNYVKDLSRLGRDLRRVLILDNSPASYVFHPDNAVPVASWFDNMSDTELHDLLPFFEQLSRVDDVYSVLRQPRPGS
Assay: CTDSP1 inhibitors, concentration-response, biochemical, absorbance readout, ultra-high-throughput screen actives (AID 540297)
Type: functional
Active and inactive are the calls of the source.
quantity_name: IC50

Use the examples below as a reference point.
molecule=O=C(COc1cccnc1[N+](=O)[O-])Nc1ncc(Cl)cc1Cl value_reported="6.27 µM (active)"
molecule="CCOC(=O)C1=C(C)c2ccccc2OC1(C(=O)OCC)c1ccccc1 (centres undefined)" value_reported="34.2 µM (active)"
molecule=CC(C)(C)Cc1nnc(NC(=O)Cc2cccs2)s1 value_reported="4.36 µM (active)"

Request: // returns reported IC50 for input Cc1nn(CCc2nnn[nH]2)c2nc(-c3ccccc3)cc(C(F)(F)F)c12
Response: 7.45 µM (active)

###

Biological target: Nonstructural protein 1 (Influenza A virus, UniProt Q194T2)
Sequence (Q194T2 whole entry): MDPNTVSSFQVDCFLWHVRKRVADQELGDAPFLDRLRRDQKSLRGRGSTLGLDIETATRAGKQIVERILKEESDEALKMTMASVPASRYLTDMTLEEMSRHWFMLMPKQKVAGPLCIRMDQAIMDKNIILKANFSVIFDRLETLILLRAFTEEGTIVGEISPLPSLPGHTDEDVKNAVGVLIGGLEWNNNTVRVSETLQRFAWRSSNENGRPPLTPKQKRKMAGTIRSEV
Format: functional, Influenza A virus (A/California/07/2009(H1N1))
Activity calls are given as the source filed them.
Reported IC50 is given for each of the following compounds.

chem_smiles=CCN1C(=O)/C(=C/NNC(=O)c2ccncc2)C(=O)NC1=S experimental_target="Nonstructural protein 1 (Influenza A virus, UniProt Q194T2)" value_reported="13.3 µM (active)"
chem_smiles=Nc1ccc(N2CCCCC2)cc1N1CCCCC1 experimental_target="Nonstructural protein 1 (Influenza A virus, UniProt Q194T2)" value_reported="16.1 µM (active)"
chem_smiles=CC(=NNC(=S)N1CC2CCC(CC2)C1)c1ccncn1 experimental_target="Nonstructural protein 1 (Influenza A virus, UniProt Q194T2)" value_reported="3.98 µM (active)"

Request: Enter reported IC50 observed with Nonstructural protein 1 (Influenza A virus, UniProt Q194T2) for Cn1cccc1C(=O)Nc1nc(-c2ccccn2)cs1
Response: 11 µM (active)

Request: Entry O=S(=O)(c1ccc(Br)cc1)c1nc(-c2ccccc2)oc1NCCN1CCOCC1 please
Response: > 100 µM (active)

Request: Entry c1ccc(-c2cnnc(-c3ccccn3)n2)cc1 please
Response: 12.9 µM (active)

Request: Entry CCOc1cccc(-c2c(C(=O)N/N=C(\C)c3ccccn3)nnn2-c2nonc2N)c1 please
Response: 3.36 µM (active)
